- Test system: pylorous ligated rats
- Experiment Description: Antisecretory activity in the pylorous ligated rat model
- Type: in vivo, male Sprague-Dawley rats
- Cond: Rattus norvegicus, 4 h; oral dose 50 mg/kg; negative sign means stimulated; read-out: Percent inhibition of pepsin output
- Protocol: To determine the antisecretory activity of the present compounds, the compounds were tested for such activity in pylorous ligated rats. In this test, male Sprague-Dawley rats weighing 170-190 g. were fasted for 24 hours. Water was allowed ad libitum. All groups were comprised of six rats. […] The samples were centrifuged and the volume, less debris, was measured. […] Pepsin activity was determined on an auto analyzer using hemoglobin as the substrate by the method of Anson. […]
Structures can show the parent of a compound that is named as a salt.

# Molecule, Quantity Unit, inhibition in vivo at 50 mg/kg
records = [
    ("CCCCCc1cc(O)c(C2CCN(C)CC2)c(O)c1 [XVIII, hydrochloride]", "%", 1.4),
    ("CC(C)C(C)c1cc(O)c(C2=CCN(C)CC2)c(O)c1 (stereo not drawn) [Example VII, hydrochloride]", "%", -9.9),
    ("CC(C)c1cc(O)c(C2=CCN(C)CC2)c(O)c1.Cl [Example VI, hydrochloride]", "%", 54.7),
]
